Data provenance: the supplement of paper PMC7877785

assay: self-splicing fitness, log relative to wild type (ln ratio); higher = more splicing; Tetrahymena group I intron in knt gene, E. coli kanamycin selection, DiMSum; sequences stand for … in CUCUCU…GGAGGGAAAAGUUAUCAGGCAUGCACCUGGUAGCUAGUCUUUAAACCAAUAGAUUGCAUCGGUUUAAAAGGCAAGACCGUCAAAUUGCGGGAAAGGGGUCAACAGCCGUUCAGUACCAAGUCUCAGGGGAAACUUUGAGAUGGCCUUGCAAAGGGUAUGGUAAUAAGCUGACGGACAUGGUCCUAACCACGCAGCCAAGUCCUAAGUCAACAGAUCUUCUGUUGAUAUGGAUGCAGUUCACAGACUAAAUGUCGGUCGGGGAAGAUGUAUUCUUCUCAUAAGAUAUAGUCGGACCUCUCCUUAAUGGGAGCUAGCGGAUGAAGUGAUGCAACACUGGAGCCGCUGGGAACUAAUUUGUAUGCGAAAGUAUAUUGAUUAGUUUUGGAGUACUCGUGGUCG;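 also: selection with 25 µg/mL kanamycin versus none on LB agar overnight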
measurementConditions: 37 °C
propertyMeasured: self-splicing fitness (ln)
// return just the number, without any unit appended

Memo: GAGAAGCAAUAUUACGGAUA , reported self-splicing fitness (ln): -0.942

Record AGUAAGCAAUAUUACGAGUC , field self-splicing fitness (ln): -1.45

# self-splicing fitness (ln) of AAGAAGCAAUAUUACGUUCA = 0.133
